Measurement target: T1, human GPC3 on cells (human, UniProt P51654 25-554)
T1 construct: whole, on cells; over-expressed on CHOK1 cells or endogenous on HEPG2, Hep3B and Huh-7 hepatocellular carcinoma cells; the cell line is named under assay; also called GPC3-CHOK1 cells; human GPC3 over-expressed CHOK1 cells
Assay procedure: FACS, Huh-7 cells
Each entry below lists one item and its recorded EC50 value.

Completed entries (count: 2):
52H5D3B8-6#-VH1+VL4 (antibody, V domains shown, humanized) VH: QVQLVQSGAEVKKPGASVKVSCKASGYTFTDYEMHWVRQAPGQGLEWMGAIHPGSGGTAYNQKFKGRVTMTRDTSTSTVYMELSSLRSEDTAVYYCARYYSYAYWGQGTLVTVSS VL: DIVMTQTPLSLSVTPGQPASISCRSSQSLVHSNGNTYLQWYLQKPGQSPKLLIYKVSNRFSGVPDRFSGSGSGTDFTLKISRVEAEDVGVYFCFQSIHVPYTFGGGTKLEIK :: 0.0268 µg/mL
52H5D3B8-6# chimeric mAb (antibody, V domains shown, CDR3 mutant of the 52H5D3B8 chimeric mAb (human IgG1); also called 52H5D3B8-6#-VH+VL) VH: QVQLQQSGAELVRPGASVKLSCKALGYTFTDYEMHWVKQTPVHGLEWIGAIHPGSGGTAYNQKFKGKATLTADKFSSTGYMELSSLTSEDSAVYYCTRYYSYAYWGQGTLVTVSA VL: DVVMTQTPLSLPVSLGDQASISCRSSQSLVHSNGNTYLQWYLQKPGQSPKLLIYKVSNRFSGVPDRFSGSGSGTDFILKISRVEAEDLGVYFCFQSIHVPYTFGGGTKLEIK :: 0.0347 µg/mL

Param item = 52H5D3B8-6#-VH3+VL2 (antibody, V domains shown, humanized) VH: QVQLVQSGAEVKKPGASVKVSCKALGYTFTDYEMHWVKQAPGQGLEWIGAIHPGSGGTAYNQKFKGRVTLTADTSTSTVYMELSSLRSEDTAVYYCTRYYSYAYWGQGTLVTVSS VL: DIVMTQTPLSLSVTPGQPASISCRSSQSLVHSNGNTYLQWYLQKPGQSPQLLIYKVSNRFSGVPDRFSGSGSGTDFTLKISRVEAEDVGVYFCFQSIHVPYTFGGGTKLEIK ; retrieve measured EC50.
0.0411 µg/mL
